Biological target: T1, ALK7-Fc comprising protein (Homo sapiens (Human), UniProt Q8NER5 21-113)
T1 construct: not shown: The Fc part and any linker of the fusion; The construct's exact ALK7 limits are not seen either
T1 sequence: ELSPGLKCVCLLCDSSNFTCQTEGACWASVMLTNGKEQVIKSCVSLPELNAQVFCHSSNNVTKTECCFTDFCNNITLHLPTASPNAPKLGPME
Experiment: SPR (Biacore T100/T200), 25 °C; antibody captured on FAB chip, ALK7-Fc comprising protein as analyte; 1:1 model
Metric: pKd
Give bare numbers, as −log10 of the molar value.

INSERT INTO assay_data (binder, test_result) VALUES
  ('L02 (antibody, V domains shown, also called mAb L02; antibody L02) VH: QVQLVQSGAEVKKPGASVKVSCKASGYTFAGYNMHWVRQAPGQGLEWVGIINPNSGWTNYAQKFQGRVTMTRDTSVSAAYMELSRLRSDDTAVYYCARDPVGARYEVFDYWGQGTLVTVSS VL: EIVMTQSPATLSVSPGERATLSCRASQSVSSALAWYQQKPGQAPRLLIYSAFTRASGIPARFSGSGSGTEFTLTISSLQSEDFAVYYCQQAWAFPLTFGGGTKVEIK', 9.36);

Dear reader, for each entry below, please note its pKd.
1. J02 (antibody, V domains shown, also called mAb J02; antibody J02) VH: EVQLLESGGGLVQPGGSLRLSCAASGFTFSVYAMSWVRQAPGKGLEWVSAISGSGDSTVYADSVKGRFTISRDNSKNTLYLQMNSLRAEDTAVYYCAKPSYQPIYWGQGTLVTVSS VL: DIQMTQSPSSVSASVGDRVTITCRASQGISSWLAWYQQKPGKAPKLLIYAASSLQSGVPSRFSGSGSGTDFTLTISSLQPEDFATYYCQQAASYPLTFGGGTKVEIK
2. K02 (antibody, V domains shown, also called mAb K02; antibody K02) VH: QVQLVQSGAEVKKPGSSVKVSCKASGGTFSSSAIGWVRQAPGQGLEWMGGIWPIFGTALYAQKFQGRVTITADESTSTAYMELSSLRSEDTAVYYCARDPREYIHVFDIWGQGTMVTVSS VL: DIQMTQSPSSLSASVGDRVTITCRASQSISSYLNWYQQKPGKAPKLLIYGASSLQSGVPSRFSGSGSGTDFTLTISSLQPEDFATYYCQQAYSFPWTFGGGIKVEIK
3. C03 (antibody, human IgG1, kappa, V domains shown, also called mAb C03; antibody C03) VH: QLQLQESGPGLVKPSETLSLTCTVSGGSISSSAYYWAWIRQPPGKGLEWIGSIYLSGSTTYNPSLKSRVTISVDTSKNQFSLKLSSVTAADTAVYYCARDGRYQSRSPDYYYGMDVWGQGTTVTVSS VL: EIVLTQSPGTLSLSPGERATLSCKASQSVSSSYLAWYQQKPGQAPRLLIYGAFSRANGIPDRFSGSGSGTDFTLTISRLEPEDFAVYYCQQLVSYPFTFGGGTKVEIKR
4. G05 (antibody, human IgG1, kappa, V domains shown, also called mAb G05; antibody G05) VH: QVQLVQSGAEVKKPGSSVKVSCKASGGTFSGQAISWVRQAPGQGLEWMGGIIPSFGTARYAQKFQGRVTITADESTSTAYMELSSLRSEDTAVYYCARTPYYDSSGYLDVWGQGTMVTVSS VL: DIQMTQSPSSLSASVGDRVTITCQASHDIDNYLNWYQQKPGKAPKLLIYYASNLKTGVPSRFSGSGSGTDFTFTISSLQPEDIATYYCQQSRASPPTFGGGTKVEIKR

(A)
8.27
7.91
9.48
9.06
